Molecular target: T1, cynomolgus monkey ADAM9 (cynoADAM9) on cells (cynomolgus monkey, UniProt Q13443 206-819 (human entry))
T1 construct: also called Cho-K/cynoADAM9 clone 2; Cho-K/cynoADAM9 clone #16
T1 chain: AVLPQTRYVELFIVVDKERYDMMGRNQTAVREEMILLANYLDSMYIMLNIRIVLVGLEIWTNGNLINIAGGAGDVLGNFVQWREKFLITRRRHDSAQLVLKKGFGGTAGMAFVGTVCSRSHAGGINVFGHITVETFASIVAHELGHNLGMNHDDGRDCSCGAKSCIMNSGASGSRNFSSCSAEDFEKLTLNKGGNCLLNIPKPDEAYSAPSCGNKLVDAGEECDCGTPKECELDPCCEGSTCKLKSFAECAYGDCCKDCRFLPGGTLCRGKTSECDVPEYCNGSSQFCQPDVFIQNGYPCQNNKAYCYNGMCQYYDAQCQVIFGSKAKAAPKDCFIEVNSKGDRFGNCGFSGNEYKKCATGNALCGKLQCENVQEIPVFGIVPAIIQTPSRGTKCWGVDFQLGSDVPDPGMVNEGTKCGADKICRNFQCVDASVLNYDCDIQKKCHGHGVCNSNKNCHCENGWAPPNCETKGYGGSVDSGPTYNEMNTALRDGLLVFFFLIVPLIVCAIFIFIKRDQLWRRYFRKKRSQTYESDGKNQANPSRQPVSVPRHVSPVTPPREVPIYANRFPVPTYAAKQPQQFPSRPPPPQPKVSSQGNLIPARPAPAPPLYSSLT
Experiment: FACS, 300-19 cells expressing cynomolgus ADAM9
The following binders are shown together with reported pEC50 values.
Lab note: report pEC50 as minus log10 of the concentration in molar units, number only.

Some entries whose results are on file:
- hMAB-A (2C.2) (antibody, human IgG1, kappa, V domains shown, IgG1 kappa; also called MAB-A VH(2C); MAB-A VH(2C.2)) VH: EVQLVESGGGLVKPGGSLRLSCAASGFTFSSYWMHWVRQAPGKGLEWVGEIIPIFGHTNYNEKFKSRFTISLDNSKNTLYLQMGSLRAEDTAVYYCARGGYYYYPRFGWLDYWGQGTTVTVSS VL: DIVMTQSPDSLAVSLGERATISCKASQSVDYSGDSYMNWYQQKPGQPPKLLIYAASDLESGIPARFSGSGSGTDFTLTISSLEPEDFATYYCQQSHEDPFTFGQGTKLEIKR: 8.42
- hMAB-A(2C.2)-DGN549 (antibody, human IgG1, kappa, V domains shown, lysine-linked DGN549, sites not given; DGN549-L (compound D2) linked to lysine residues of the antibody, sites not given; average 2.8 mol DGN549/mol antibody) VH: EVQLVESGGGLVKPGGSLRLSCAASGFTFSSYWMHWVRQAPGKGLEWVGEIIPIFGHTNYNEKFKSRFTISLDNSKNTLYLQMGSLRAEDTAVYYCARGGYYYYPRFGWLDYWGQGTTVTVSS VL: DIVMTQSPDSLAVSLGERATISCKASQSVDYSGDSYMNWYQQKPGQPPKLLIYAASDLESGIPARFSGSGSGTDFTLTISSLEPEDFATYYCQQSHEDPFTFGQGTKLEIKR: 8.25

# input for lookup
Request: Specify measured pEC50 for hMAB-A(2C.2)-sSPDB-DM4 (antibody, human IgG1, kappa, V domains shown, lysine-linked DM4, sites not given; DM4 linked through sulfo-SPDB to lysine residues of the antibody, sites not given; average 3.2 mol DM4/mol antibody) VH: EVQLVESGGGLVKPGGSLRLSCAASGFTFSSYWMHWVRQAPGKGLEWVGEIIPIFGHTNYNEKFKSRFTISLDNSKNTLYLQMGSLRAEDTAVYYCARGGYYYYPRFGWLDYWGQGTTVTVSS VL: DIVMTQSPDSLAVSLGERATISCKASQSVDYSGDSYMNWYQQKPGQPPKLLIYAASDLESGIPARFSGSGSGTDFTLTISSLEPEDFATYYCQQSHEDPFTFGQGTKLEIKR .
Result: 8.36
